Provenance of the data: PubChem BioAssay (Tox21)

# SYSTEM: Androgen receptor (Homo sapiens) (UniProt P10275)
# Sequence (P10275 whole entry, looked up): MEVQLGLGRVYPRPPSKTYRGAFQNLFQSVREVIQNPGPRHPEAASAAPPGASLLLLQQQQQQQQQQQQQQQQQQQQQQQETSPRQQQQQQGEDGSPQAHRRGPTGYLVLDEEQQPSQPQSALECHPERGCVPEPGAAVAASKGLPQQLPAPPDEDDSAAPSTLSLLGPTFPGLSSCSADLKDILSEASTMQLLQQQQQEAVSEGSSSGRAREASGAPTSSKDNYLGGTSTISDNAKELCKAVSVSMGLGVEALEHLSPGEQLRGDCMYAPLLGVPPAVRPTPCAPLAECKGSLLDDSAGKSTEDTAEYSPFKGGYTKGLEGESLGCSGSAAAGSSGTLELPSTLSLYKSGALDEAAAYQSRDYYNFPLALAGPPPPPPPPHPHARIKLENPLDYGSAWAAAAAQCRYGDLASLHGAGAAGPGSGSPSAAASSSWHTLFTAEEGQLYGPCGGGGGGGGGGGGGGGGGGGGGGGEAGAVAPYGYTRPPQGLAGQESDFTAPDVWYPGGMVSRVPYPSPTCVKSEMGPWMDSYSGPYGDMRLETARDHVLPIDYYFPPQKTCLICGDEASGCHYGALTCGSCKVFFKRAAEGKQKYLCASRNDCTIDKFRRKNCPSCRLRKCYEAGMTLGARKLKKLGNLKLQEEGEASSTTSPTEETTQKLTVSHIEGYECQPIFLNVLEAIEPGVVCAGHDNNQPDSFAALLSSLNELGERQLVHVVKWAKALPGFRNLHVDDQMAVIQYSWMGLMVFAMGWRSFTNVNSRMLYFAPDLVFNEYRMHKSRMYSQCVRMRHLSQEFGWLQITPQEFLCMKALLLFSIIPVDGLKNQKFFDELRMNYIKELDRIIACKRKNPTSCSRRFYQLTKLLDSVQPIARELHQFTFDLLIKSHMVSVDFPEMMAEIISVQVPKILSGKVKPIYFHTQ
# ASSAY EXPLANATION: qHTS assay to identify small molecule agonists of the androgen receptor (AR) signaling pathway (AID 743036); as to activation: % is scaled to controls: 0 for no effect and ±100 for the full control effect
# SETTINGS: HEK293 AR-UAS-bla GripTite, beta-lactamase FRET ratio, 16 h; series mostly up to 62.4 µM
Inconclusive results are not listed. Calls of active or inactive are those of the source. Calls follow the shape of the dose curve; as a rule, active = well fitted activation curve with a large enough effect in the signal ratio in the repeat runs, with a control signal flat (not every such curve was filed as active); inconclusive = weak or mixed curves, or effect the other way; inactive = no such curve, though single readings can be large or run the other way; the % refers to the signal ratio.
Returns: one label drawn from class 1 (active), class 0 (inactive)

## Task What was the test verdict on CCC(=O)Oc1ccc2c(c1)CC[C@@H]1[C@@H]2CC[C@]2(C)[C@@H](OC(=O)CC)CC[C@@H]12 ?
## Result class 1

## Task Dear colleague, could you share the recorded outcome for CC(=O)O[C@]1(C(C)=O)CC[C@H]2[C@@H]3CCC4=CC(=O)CC[C@]4(C)[C@@]3(F)[C@@H](O)C[C@@]21C when you have a moment?
## Result class 0

## Task Field: outcome | Entry: [O]=[Bi][O][Bi]=[O]
## Result class 0

## Task What did this assay record as the result for CC[C@H]1NC(=O)[C@@H](NC(=O)c2ncccc2O)[C@@H](C)OC(=O)[C@H](c2ccccc2)NC(=O)[C@@H]2CC(=O)CCN2C(=O)[C@H](Cc2ccccc2)N(C)C(=O)[C@@H]2CCCN2C1=O ?
## Result class 0

## Task Just curious, what result did Nc1ccn(C[C@@H](CO)OCP(=O)(O)O)c(=O)n1 get here?
## Result class 0

## Task Hi, do you know how CCCCCCCCCCCCCCCCCC(=O)OC[C@@H](O)[C@H]1OC[C@H](O)[C@H]1O came out in this test?
## Result class 0

## Task So what was the verdict on CCOC(=O)c1c[nH]c2cc(OCC(C)C)c(OCC(C)C)cc2c1=O in this test?
## Result class 0

## Task Field: outcome | Entry: CC(C)CN(C[C@@H](O)[C@H](Cc1ccccc1)NC(=O)O[C@@H]1CCOC1)S(=O)(=O)c1ccc(N)cc1
## Result class 0
